B1: HNF4A (parent)
chain: RFSRQCVVDKDKRNQCRYCRLKKC

# Variants of: B1
# assay_notes: protein stability index of a GFP-peptide fusion (GPS, HEK-293T) (PSI 1-6); higher = more stable;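 further: lentivirally expressed fusions sorted by FACS into six bins by GFP to DsRed ratio, PSI derived from sequencing read proportions per bin multiplied by bin number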
# assay_setup: c terminus: a fixed tail appended
Recorded measurements of protein stability index, one per entry
# respond with the number and nothing more

C6T : 2.29
R17Q : 3.42
R1E : 3.43
K23L : 1.34
R13E : 2.02

# get_value(readout='protein stability index', item= R4N ) 2.53

# get_value(readout='protein stability index', item= K22G ) 2.27

# get_value(readout='protein stability index', item= D9Q ) 2.78
